target_or_system: Heat shock protein HSP90 (Homo sapiens, UniProt P07900+P08238)
assay_remarks: Inhibition of human HSP90 using BODIPY labelled geldanamycin as substrate by fluorescence polarization assay
Format: protein assay
Mark class 1 for IC50 under 0.08 µM, class 0 if at or over.

Worked examples follow.
structure_string	assigned_class
Nc1ncnc2c1nc(Sc1cc3c(cc1Br)OC(F)(F)O3)n2CCC1CCN(C=O)CC1	class 0
Nc1ncnc2c1nc(Sc1cc3occc3cc1Br)n2CCC1CCN(C=O)CC1	class 1

Threshold test, IC50 < 0.08 µM: `C[C@H](N)C(=O)N1CCC(CCn2c(Sc3cc4c(cc3Br)OCO4)nc3c(N)ncnc32)CC1` class 0

Threshold test, IC50 < 0.08 µM: `Nc1ncnc2c1nc(Sc1cc3c(cc1Br)CCC3)n2CCC1CCN(C=O)CC1` class 1

###

Tested on: NCI-H69
assay_remarks: Cytotoxicity against human NCI-H69 cells assessed as inhibition of tumor growth incubated for 72 hrs by luminometry
Assay type: functional, cell-based
setup_conditions: NCI-H69, 72 h
property_name: pIC50
pIC50 (log units): -log10 of the concentration in mol/L.

Look up and report pIC50, with NCI-H69 as system, for `C[C@H](O)C(=O)N1CCC(CCn2c(Sc3cc4c(cc3Br)OCO4)nc3c(N)ncnc32)CC1` 6.82

###

assay_remarks: Solubility of compound in phosphate buffer at pH 7.4
Type: physicochemical
property_name: solubility (µM)
Form entry: value (µM) — number only.

Give a short answer stating reported solubility for `C[C@H](O)C(=O)N1CCC(CCn2c(Sc3cc4c(cc3Br)OCO4)nc3c(N)ncnc32)CC1` . 20

###

# reported AUC; entries follow
assay_remarks: AUC in Swiss nude mouse at 10 mg/kg, po by LC-ESI-MS/MS method
Format: ADME, organism-based
Design: dose 10 mg/kg, route oral
setup_conditions: plasma
Form entry: value (ng·h/mL) — number only.

structure_string	observed_result
Nc1ncnc2c1nc(Sc1cc3c(cc1Br)OCCO3)n2CCC1CCN(C(=O)CO)CC1	702

Give a short answer stating reported AUC for `C[C@H](O)C(=O)N1CCC(CCn2c(Sc3cc4c(cc3Br)OCO4)nc3c(N)ncnc32)CC1` . 3210

Give a short answer stating reported AUC for `C[C@@H](O)C(=O)N1CCC(CCn2c(Sc3cc4c(cc3Br)OCO4)nc3c(N)ncnc32)CC1` . 2410

Give a short answer stating reported AUC for `Nc1ncnc2c1nc(Sc1cc3c(cc1Br)OCO3)n2CCC1CCN(C(=O)CO)CC1` . 1320

###

# reported remaining at 40 min; entries follow
assay_remarks: Metabolic stability in human liver microsomes assessed as percent of residual drug in presence of NADPH incubated for 40 mins by LC-ESI-MS/MS method
Type: ADME, Microsome
setup_conditions: liver microsomes, read-out: Stability
Form entry: value (%) — number only.

Reference set (3 entries):
compound	remaining at 40 min, %
Nc1ncnc2c1nc(Sc1cc3occc3cc1Br)n2CCC1CCN(C=O)CC1	53
Nc1ncnc2c1nc(Sc1cc3c(cc1Br)C(=O)CC3)n2CCC1CCN(C=O)CC1	30
Nc1ncnc2c1nc(Sc1cc3c(cc1Br)OCO3)n2CCC1CCN(C(=O)C2CC2)CC1	1

Give a short answer stating reported remaining at 40 min for `C[C@@H](O)C(=O)N1CCC(CCn2c(Sc3cc4c(cc3Br)OCCO4)nc3c(N)ncnc32)CC1` . 35

Give a short answer stating reported remaining at 40 min for `Nc1ncnc2c1nc(Sc1cc3c(cc1Br)CCC3)n2CCC1CCN(C=O)CC1` . 1

Give a short answer stating reported remaining at 40 min for Nc1ncnc2c1nc(Sc1cc3c(cc1Br)OCO3)n2CCC(N)C1CC1 (centres undefined) . 75

Give a short answer stating reported remaining at 40 min for `C[C@H](O)C(=O)N1CCC(CCn2c(Sc3cc4c(cc3Br)CCO4)nc3c(N)ncnc32)CC1` . 21

Give a short answer stating reported remaining at 40 min for `N#Cc1cc2c(cc1Sc1nc3c(N)ncnc3n1CCC1CCN(C=O)CC1)OCO2` . 81

Give a short answer stating reported remaining at 40 min for `CCCC(=O)N1CCC(CCn2c(Sc3cc4c(cc3Br)OCO4)nc3c(N)ncnc32)CC1` . 0

###

assay_remarks: Half life in Swiss nude mouse at 2.5 mg/kg, iv by LC-ESI-MS/MS method
Type: ADME, organism-based
Design: dose 2.5 mg/kg, route intravenous
setup_conditions: in vivo
property_name: half-life (min)
Form entry: value (min) — number only.

Give a short answer stating reported half-life for `C[C@@H](O)C(=O)N1CCC(CCn2c(Sc3cc4c(cc3Br)OCO4)nc3c(N)ncnc32)CC1` . 36

Give a short answer stating reported half-life for `Nc1ncnc2c1nc(Sc1cc3c(cc1Br)OCO3)n2CCC1CCN(C(=O)CO)CC1` . 30

Give a short answer stating reported half-life for `Nc1ncnc2c1nc(Sc1cc3c(cc1Br)OCO3)n2CCC1CCN(C=O)CC1` . 30

Give a short answer stating reported half-life for `C[C@H](O)C(=O)N1CCC(CCn2c(Sc3cc4c(cc3Br)OCCO4)nc3c(N)ncnc32)CC1` . 25.8

Give a short answer stating reported half-life for `C[C@@H](O)C(=O)N1CCC(CCn2c(Sc3cc4c(cc3Br)OCCO4)nc3c(N)ncnc32)CC1` . 36

Give a short answer stating reported half-life for `C[C@H](O)C(=O)N1CCC(CCn2c(Sc3cc4c(cc3Br)OCO4)nc3c(N)ncnc32)CC1` . 84

###

assay_remarks: AUC in Swiss nude mouse at 2.5 mg/kg, iv by LC-ESI-MS/MS method
Format: ADME, organism-based
Design: dose 2.5 mg/kg, route intravenous
setup_conditions: plasma
property_name: AUC (ng·h/mL)
Form entry: value (ng·h/mL) — number only.

structure_string	value_units	observed_result
C[C@H](O)C(=O)N1CCC(CCn2c(Sc3cc4c(cc3Br)OCO4)nc3c(N)ncnc32)CC1	ng·h/mL	2110
Nc1ncnc2c1nc(Sc1cc3c(cc1Br)OCCO3)n2CCC1CCN(C=O)CC1	ng·h/mL	967
C[C@@H](O)C(=O)N1CCC(CCn2c(Sc3cc4c(cc3Br)OCO4)nc3c(N)ncnc32)CC1	ng·h/mL	1650
Nc1ncnc2c1nc(Sc1cc3c(cc1Br)OCO3)n2CCC1CCN(C=O)CC1	ng·h/mL	1320
C[C@@H](O)C(=O)N1CCC(CCn2c(Sc3cc4c(cc3Br)OCCO4)nc3c(N)ncnc32)CC1	ng·h/mL	1530

Give a short answer stating reported AUC for `Nc1ncnc2c1nc(Sc1cc3c(cc1Br)OCO3)n2CCC1CCN(C(=O)CO)CC1` . 574

Give a short answer stating reported AUC for `Nc1ncnc2c1nc(Sc1cc3occc3cc1Br)n2CCC1CCN(C=O)CC1` . 880

Give a short answer stating reported AUC for `Nc1ncnc2c1nc(Sc1cc3c(cc1Br)OCCO3)n2CCC1CCN(C(=O)CO)CC1` . 517

Give a short answer stating reported AUC for `C[C@H](O)C(=O)N1CCC(CCn2c(Sc3cc4c(cc3Br)OCCO4)nc3c(N)ncnc32)CC1` . 1460

###

# reported remaining at 40 min; entries follow
assay_remarks: Metabolic stability in human liver microsomes assessed as percent of residual drug in presence of NADPH incubated for 40 mins by LC-ESI-MS/MS method
Format: ADME, Microsome
setup_conditions: liver microsomes, read-out: Stability

structure_string	remaining at 40 min
Cn1nnnc1N1CCC(CCn2c(Sc3cc4c(cc3Br)OCO4)nc3c(N)ncnc32)CC1	0%
C[C@H](N)C(=O)N1CCC(CCn2c(Sc3cc4c(cc3Br)OCO4)nc3c(N)ncnc32)CC1	69%
CC(=O)C(=O)N1CCC(CCn2c(Sc3cc4c(cc3Br)OCO4)nc3c(N)ncnc32)CC1	2%

Give a short answer stating reported remaining at 40 min for `C[C@@H](O)C(=O)N1CCC(CCn2c(Sc3cc4c(cc3Br)OCO4)nc3c(N)ncnc32)CC1` . 58%

Give a short answer stating reported remaining at 40 min for `Nc1ncnc2c1nc(Sc1cc3c(cc1Cl)OCO3)n2CCC1CCN(C=O)CC1` . 31%

###

# reported Cmax; entries follow
assay_remarks: Cmax in Swiss nude mouse at 100 mg/kg, po by LC-ESI-MS/MS method
Format: ADME, organism-based
Set-up: dose 100 mg/kg, route oral
setup_conditions: in vivo
Form entry: value (ng/mL) — number only.

Reference set (2 entries):
structure_string	Cmax / ng/mL
C[C@@H](O)C(=O)N1CCC(CCn2c(Sc3cc4c(cc3Br)OCCO4)nc3c(N)ncnc32)CC1	9300
C[C@H](O)C(=O)N1CCC(CCn2c(Sc3cc4c(cc3Br)OCCO4)nc3c(N)ncnc32)CC1	11600

Give a short answer stating reported Cmax for `C[C@@H](O)C(=O)N1CCC(CCn2c(Sc3cc4c(cc3Br)OCO4)nc3c(N)ncnc32)CC1` . 8400

Give a short answer stating reported Cmax for `C[C@H](O)C(=O)N1CCC(CCn2c(Sc3cc4c(cc3Br)OCO4)nc3c(N)ncnc32)CC1` . 13100

Give a short answer stating reported Cmax for `Nc1ncnc2c1nc(Sc1cc3c(cc1Br)OCO3)n2CCC1CCN(C(=O)CO)CC1` . 7780

Give a short answer stating reported Cmax for `Nc1ncnc2c1nc(Sc1cc3c(cc1Br)OCO3)n2CCC1CCN(C=O)CC1` . 10900

Give a short answer stating reported Cmax for `Nc1ncnc2c1nc(Sc1cc3c(cc1Br)OCCO3)n2CCC1CCN(C(=O)CO)CC1` . 7530

Give a short answer stating reported Cmax for `Nc1ncnc2c1nc(Sc1cc3c(cc1Br)OCCO3)n2CCC1CCN(C=O)CC1` . 8540
